Quick reference: % binding (EMAX) compared to WT MET of the listed items.
Target: human MET ECD mutant A (mutations 1, 2, 3) (human) (UniProt P08581)
Experiment: ELISA, MET ECD in solid phase, mAb 0-50 nM
Write the value in % WT MET ECD as a bare number.

- Binder: "71D4 chimeric llama-human IgG1 mAb (antibody, V domains shown, llama VH on human IgG1 CH1-CH2-CH3, llama VL on human lambda CL) VH: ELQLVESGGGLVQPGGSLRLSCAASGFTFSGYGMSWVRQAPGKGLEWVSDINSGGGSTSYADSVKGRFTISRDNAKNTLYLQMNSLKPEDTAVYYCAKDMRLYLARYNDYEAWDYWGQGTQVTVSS VL: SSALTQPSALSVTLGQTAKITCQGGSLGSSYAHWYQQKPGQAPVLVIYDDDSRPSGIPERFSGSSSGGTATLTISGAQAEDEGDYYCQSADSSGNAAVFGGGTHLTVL"
  % binding (EMAX) compared to WT MET (% WT MET ECD): 114
- Binder: "71C3 chimeric llama-human IgG1 mAb (antibody, V domains shown, llama VH on human IgG1 CH1-CH2-CH3, llama VL on human lambda CL) VH: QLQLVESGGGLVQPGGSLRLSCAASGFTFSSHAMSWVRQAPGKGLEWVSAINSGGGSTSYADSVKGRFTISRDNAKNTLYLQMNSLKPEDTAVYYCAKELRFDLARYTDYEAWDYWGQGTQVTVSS VL: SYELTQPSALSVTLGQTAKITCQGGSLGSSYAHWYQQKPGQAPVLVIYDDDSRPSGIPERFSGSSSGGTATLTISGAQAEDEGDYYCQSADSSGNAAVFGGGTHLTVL"
  % binding (EMAX) compared to WT MET (% WT MET ECD): 99.8
- Binder: "71A3 chimeric llama-human IgG1 mAb (antibody, V domains shown, llama VH on human IgG1 CH1-CH2-CH3, llama VL on human lambda CL) VH: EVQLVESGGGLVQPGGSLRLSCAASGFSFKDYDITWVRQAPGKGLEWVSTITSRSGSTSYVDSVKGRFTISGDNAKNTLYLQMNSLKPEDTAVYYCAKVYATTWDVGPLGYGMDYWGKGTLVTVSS VL: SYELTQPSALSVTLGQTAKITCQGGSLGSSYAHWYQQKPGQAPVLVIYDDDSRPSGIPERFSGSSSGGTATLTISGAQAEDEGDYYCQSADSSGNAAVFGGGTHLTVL"
  % binding (EMAX) compared to WT MET (% WT MET ECD): 117
- Binder: "71D6 chimeric llama-human IgG1 mAb (antibody, V domains shown, llama VH on human IgG1 CH1-CH2-CH3, llama VL on human lambda CL) VH: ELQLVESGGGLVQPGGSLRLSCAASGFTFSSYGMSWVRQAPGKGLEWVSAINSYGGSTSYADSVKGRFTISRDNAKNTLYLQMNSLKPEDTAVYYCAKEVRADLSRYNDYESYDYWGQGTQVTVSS VL: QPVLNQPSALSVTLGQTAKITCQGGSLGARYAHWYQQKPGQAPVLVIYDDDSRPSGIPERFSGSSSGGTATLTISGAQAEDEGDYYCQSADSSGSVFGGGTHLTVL"
  % binding (EMAX) compared to WT MET (% WT MET ECD): 103

Would you kindly look at the next entry?
The measured % binding (EMAX) compared to WT MET associated with 71G2 chimeric llama-human IgG1 mAb (antibody, V domains shown, llama VH on human IgG1 CH1-CH2-CH3, llama VL on human lambda CL) VH: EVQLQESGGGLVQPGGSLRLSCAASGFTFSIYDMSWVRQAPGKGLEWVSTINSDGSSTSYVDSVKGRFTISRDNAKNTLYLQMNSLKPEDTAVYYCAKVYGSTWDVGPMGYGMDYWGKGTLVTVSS VL: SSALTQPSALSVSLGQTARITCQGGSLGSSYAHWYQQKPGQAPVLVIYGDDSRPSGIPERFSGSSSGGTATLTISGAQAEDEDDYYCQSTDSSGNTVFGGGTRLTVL reads 92.1

Entry source: patent US20210087281A1
